Experiment: A CellTox Green Cytotoxicity Assay to monitor cytotoxicity in HEK293 cells - 16 hour (AID 1224888); note: potency is the fitted concentration of half-maximal effect; nearly all actives have a fitted effect of over 35% in size
Details: CellTox Green fluorescence; series mostly up to 76.8 µM
Records with an inconclusive call do not appear. Activity calls are given as the source filed them. Calls come from the whole dose curve; as a rule, active = well fitted activation curve with a large enough effect in the repeat runs; inconclusive = weak or mixed curves; inactive = flat fitted curve, though single readings scatter.

{"INPUT_SMILES": "CCCCCCCCCCCCCCCCOS(=O)(=O)O", "Potency": "21.3 µM (active)"}
{"INPUT_SMILES": "O=C(Nc1ccc(S(=O)(=O)N2CCOCC2)cc1)c1cc(Cl)ccc1NS(=O)(=O)c1ccc(Cl)s1", "Potency": "23.9 µM (active)"}
{"INPUT_SMILES": "CCCCCCCCCc1ccc(OCCOCCO)cc1", "Potency": "14.5 µM (active)"}
{"INPUT_SMILES": "CCCCCCCCCCCCCCOS(=O)(=O)O", "Potency": "43.6 µM (active)"}

----------
Assay: qHTS assay to identify small molecule agonists of the androgen receptor (AR) signaling pathway in the presence of an antagonist - cell viability counter screen (AID 1259379); note: nearly all actives have a fitted effect of over 25% in size
Settings: MDA-kb2 viability, CellTiter-Fluor, 16 h; series mostly up to 92.4 µM
Inconclusive results are not listed. The source made the active and inactive calls. The call rests on the fitted dose curve; in most records, active means well fitted cell-killing curve with a large enough effect in the repeat runs; inconclusive means weak or mixed curves, or effect the other way; inactive means flat fitted curve, though single readings scatter.
Possible outcomes: active, inactive

{"COMPOUND": "CCc1c(C(=O)NN2CCCCC2)nn(-c2ccc(Cl)cc2Cl)c1-c1ccc(Br)cc1", "LABEL": "inactive"}
{"COMPOUND": "COc1ccc(C(=O)Nc2nc3ccccc3c(NCc3ccccc3)c2C#N)cc1", "LABEL": "inactive"}
{"COMPOUND": "O[C@@H](COc1cccc2ncccc12)CN1CCN(C2c3ccccc3[C@@H]3[C@H](c4ccccc42)C3(F)F)CC1 (stereo not given in full)", "LABEL": "inactive"}
{"COMPOUND": "CC1CCC(=O)C1=O (stereo not given)", "LABEL": "inactive"}
{"COMPOUND": "Cc1cccc(Nc2ccccc2)c1", "LABEL": "inactive"}
{"COMPOUND": "CCN(CC)c1ccc(C(=C2C=CC(=[N+](CC)CC)C=C2)c2cc(S(=O)(=O)O)ccc2S(=O)(=O)[O-])cc1", "LABEL": "active"}
{"COMPOUND": "CCCCC(CC)COC(=O)CCCCCCCCC(=O)OCC(CC)CCCC (stereo not given)", "LABEL": "inactive"}
{"COMPOUND": "CCCCCCc1ccc(-c2ccc(C#N)cc2)cc1", "LABEL": "inactive"}
{"COMPOUND": "CN(C)C(=O)NC1(c2ccccc2)CCN(CC[C@@]2(c3ccc(F)c(F)c3)CN(C(=O)c3ccccc3)CCO2)CC1", "LABEL": "inactive"}
{"COMPOUND": "COC(=O)c1ccc(I)cc1S(=O)(=O)NC(=O)Nc1nc(C)nc(OC)n1", "LABEL": "inactive"}
{"COMPOUND": "C=CC(=O)OCCOc1ccccc1", "LABEL": "inactive"}
{"COMPOUND": "CC(C)O.CC(C)O.CCOC(=O)/C=C(\\C)O.CCOC(=O)/C=C(\\C)O.[Ti]", "LABEL": "inactive"}
{"COMPOUND": "CCCCNc1ccc(C(=O)OCCOCCOCCOCCOCCOCCOCCOCCOCCOC)cc1", "LABEL": "inactive"}
{"COMPOUND": "O=C(CS)Nc1ccccc1", "LABEL": "inactive"}
{"COMPOUND": "CC(=O)c1ccc2c(c1)N(CCCN(C)C)c1ccccc1S2", "LABEL": "inactive"}
{"COMPOUND": "Cc1ccc(C(C)OC(=O)C2(C)CCC(C(=O)O)C2(C)C)cc1 (stereo not given)", "LABEL": "inactive"}
{"COMPOUND": "CCCCC(CC)COC(=O)COc1ccc(Cl)cc1Cl (stereo not given)", "LABEL": "inactive"}
{"COMPOUND": "O=S(=O)(Oc1ccc(Cl)cc1)c1ccccc1", "LABEL": "inactive"}
{"COMPOUND": "CC(=O)[O][Al]", "LABEL": "inactive"}
{"COMPOUND": "CC[N+](C)(CC)CCOC(=O)C(O)(c1ccccc1)C1CCCCC1 (stereo not given)", "LABEL": "inactive"}
{"COMPOUND": "O=C1CCC(=O)O1", "LABEL": "inactive"}
{"COMPOUND": "O=C1c2ccccc2S(=O)(=O)N1CCCCN1CCN(c2ncccn2)CC1", "LABEL": "inactive"}
{"COMPOUND": "CCOC(=O)C(=O)CCc1ccccc1", "LABEL": "inactive"}
{"COMPOUND": "Cc1cccc(C)c1NC(=O)CN(CC(=O)O)CC(=O)O", "LABEL": "inactive"}
{"COMPOUND": "CC(=O)NO", "LABEL": "inactive"}
{"COMPOUND": "CCN(CC)CCOC(=O)C(Cc1cccc2ccccc12)CC1CCCO1 (stereo not given)", "LABEL": "inactive"}
{"COMPOUND": "CC(=O)OC[C@H]1O[C@@H](n2ncc(=O)[nH]c2=O)[C@H](OC(C)=O)[C@@H]1OC(C)=O", "LABEL": "inactive"}
{"COMPOUND": "CCCCC(=O)OCC(=O)[C@H]1[C@H](C)C[C@H]2[C@@H]3C[C@H](F)C4=CC(=O)C=C[C@]4(C)[C@@]3(F)[C@@H](O)C[C@@]21C", "LABEL": "inactive"}
{"COMPOUND": "Nc1cccc(S(=O)(=O)c2cccc(N)c2)c1", "LABEL": "inactive"}
{"COMPOUND": "C=CC(=O)OCCOCCOC(=O)C=C", "LABEL": "active"}
{"COMPOUND": "Nc1ccc([N+](=O)[O-])c(C(F)(F)F)c1", "LABEL": "inactive"}
{"COMPOUND": "CN(C)CCN(Cc1ccsc1)c1ccccn1", "LABEL": "inactive"}
{"COMPOUND": "CCOC(=O)C(F)(F)F", "LABEL": "inactive"}
{"COMPOUND": "CCCCCC[C@@H](O)C/C=C\\CCCCCCCC(=O)OC", "LABEL": "inactive"}
{"COMPOUND": "N=c1ccn2c(n1)O[C@H]1[C@H](O)[C@@H](CO)O[C@H]12", "LABEL": "inactive"}
{"COMPOUND": "C[N+](C)(C)CCOC(=O)CCC(=O)OCC[N+](C)(C)C", "LABEL": "inactive"}
{"COMPOUND": "C[Si](C)(CCCN)O[Si](C)(C)CCCN", "LABEL": "inactive"}
{"COMPOUND": "COc1cc(Cl)c(OC)cc1N", "LABEL": "inactive"}
{"COMPOUND": "C=CCOc1ccccc1OCC(O)CNC(C)C (stereo not given)", "LABEL": "inactive"}
{"COMPOUND": "CCOCC(O)COc1ccc(NC(=O)CC[S+](C)C)cc1 (stereo not given)", "LABEL": "inactive"}
{"COMPOUND": "Cc1ncc(CO)c(C=O)c1O", "LABEL": "inactive"}
{"COMPOUND": "NCc1ccccc1Sc1ccccc1CO", "LABEL": "inactive"}
{"COMPOUND": "NS(=O)(=O)c1ccc(N2CCCCS2(=O)=O)cc1", "LABEL": "inactive"}
{"COMPOUND": "CCOC(=O)NCCOc1ccc(Oc2ccccc2)cc1", "LABEL": "active"}
{"COMPOUND": "O=C1C(O)=C(O)C(=O)C(O)=C1O", "LABEL": "inactive"}
{"COMPOUND": "Cc1cc(C(=O)O)ccc1[N+](=O)[O-]", "LABEL": "inactive"}
{"COMPOUND": "COc1cc(Cl)ccc1Oc1ccc(Cl)cc1Cl", "LABEL": "inactive"}
{"COMPOUND": "c1ccc(-c2ccccn2)nc1", "LABEL": "inactive"}
{"COMPOUND": "COCCCN1CCC(NC(=O)c2cc(Cl)c(N)c3c2OCC3)CC1", "LABEL": "inactive"}
{"COMPOUND": "CN(C)c1ccc(CCO)cc1", "LABEL": "inactive"}
